- tested.on: T1, CRBN, Q96SW2
- T1 chain: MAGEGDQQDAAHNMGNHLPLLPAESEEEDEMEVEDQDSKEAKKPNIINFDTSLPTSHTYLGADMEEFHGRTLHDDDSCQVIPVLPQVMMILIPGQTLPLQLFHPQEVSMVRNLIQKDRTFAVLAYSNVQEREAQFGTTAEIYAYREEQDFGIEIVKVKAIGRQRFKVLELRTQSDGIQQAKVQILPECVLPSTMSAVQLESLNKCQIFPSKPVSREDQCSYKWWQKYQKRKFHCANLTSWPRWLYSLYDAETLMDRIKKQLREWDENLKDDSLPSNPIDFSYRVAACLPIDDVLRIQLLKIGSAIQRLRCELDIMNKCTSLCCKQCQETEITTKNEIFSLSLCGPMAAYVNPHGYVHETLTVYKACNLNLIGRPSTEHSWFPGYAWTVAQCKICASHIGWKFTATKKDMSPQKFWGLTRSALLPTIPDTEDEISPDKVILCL
- test: log2 fold change of degron read counts, EGFP-low vs EGFP+ sorted cells (limma voom), compound-induced degradation; higher = more compound-induced degradation of the degron-EGFP fusion; degrons are variants of IKZF1/3 zinc finger 2; compound dose not given here;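 note: pooled lentiviral library of zinc finger degron-EGFP fusions in mCherry-positive Jurkat cells, FACS-sorted after compound exposure, with degron abundance counted by next-generation sequencing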
- assay.setup: Jurkat; 18 h; compound: thalidomide
The full ranking holds about 8,300 sequences; the median of “log2 fold change of degron read counts, EGFP-low vs EGFP+ sorted cells (limma voom), compound-induced degradation” is about -1.1, and the highest 2% start at about 3.2. The sample holds the highest values, similar sequences and a random draw of the others, so the mix is not that of the screen.

residues	log2 fold change of degron read counts
FMCEICGADFTQKGNLLRHIKL [46F_47M_49E_50I_52G_53A_54D_55F_67L_, Q9UKT9]	-0.153
FVCEICGAPFTQKGNLLRHIKL [46F_47V_49E_50I_52G_53A_54P_55F_67L_, Q9UKT9]	3.65
FCCNICGASFTQKGNLLRHIKL [46F_47C_49N_50I_52G_53A_54S_55F_67L_, Q9UKT9]	1.41
FGCPICGARFTQKGNLLRHIKL [46F_47G_49P_50I_52G_53A_54R_55F_67L_, Q9UKT9]	1.05
FLCPICGARFTQKGNLLRHIKL [46F_47L_49P_50I_52G_53A_54R_55F_67L_, Q9UKT9]	1.92
FYCPICGHCFTQKGNLLRHIKL [46F_47Y_49P_50I_52G_53H_54C_55F_67L_, Q9UKT9]	-1.61
FDCPICGALFTQKGNLLRHIKL [46F_47D_49P_50I_52G_53A_54L_55F_67L_, Q9UKT9]	0.905
FACDQCGAIFTQKGNLLRHIKL [46F_47A_49D_50Q_52G_53A_54I_55F_67L_, Q9UKT9]	-2.61
FYCPVCGATFTQKGNLLRHIKL [46F_47Y_49P_50V_52G_53A_54T_55F_67L_, Q9UKT9]	1.02
FHCPVCGATFTQKGNLLRHIKL [46F_47H_49P_50V_52G_53A_54T_55F_67L_, Q9UKT9]	-0.00776
FSCPICGARFTQKGNLLRHIKL [46F_47S_49P_50I_52G_53A_54R_55F_67L_, Q9UKT9]	1.65
FLCEVCGAEFTQKGNLLRHIKL [46F_47L_49E_50V_52G_53A_54E_55F_67L_, Q9UKT9]	1.01
FFCEICGAPFTQKGNLLRHIKL [46F_47F_49E_50I_52G_53A_54P_55F_67L_, Q9UKT9]	1.95
FFCEICGADFTQKGNLLRHIKL [46F_47F_49E_50I_52G_53A_54D_55F_67L_, Q9UKT9]	-0.679
LACNQCGFFCTQKGNLLRHIKL [46L_47A_49N_50Q_52G_53F_54F_55C_67L_, Q9UKT9]	-0.847
FWCPICGARFTQKGNLLRHIKL [46F_47W_49P_50I_52G_53A_54R_55F_67L_, Q9UKT9]	1.15
